Hello, the source for this data is the supplement of paper PMC5908809, in case you need it.

- Test system: NK-92 (IL-2 2.5 ng/mL)
- TEST NAME: percent inhibition of viability; higher = more inhibition;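 further: normalised to DMSO-only wells as negative and benzethonium chloride as positive control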
- CONDITIONS: 72 h; 100 nM
# percent inhibition of viability listing for each entry below
The reply should contain only the number, in %.

stdin: Given the compound N[C@@H]1CCCN(c2c(/C=C3\SC(=O)NC3=O)cccc2-c2ccccc2)C1 [AZD1208] (max concentration tested 10000 nM) , write its reported percent inhibition of viability.
stdout: -4.31

* * *

# percent inhibition of viability listing for each entry below
- Test system: KHYG-1 (IL-2 2.5 ng/mL)
- TEST NAME: percent inhibition of viability; higher = more inhibition
- CONDITIONS: 72 h; 10 nM

1) Cc1cc(Nc2cc(N3CCN(C)CC3)nc(/C=C/c3ccccc3)n2)n[nH]1 [ENMD-2076] (max concentration tested 10000 nM) :: 4.35%
2) Cc1ccc(NC(=O)c2ccc(CN3CCN(C)CC3)cc2)cc1Nc1nccc(-c2cccnc2)n1 [Imatinib] (max concentration tested 10000 nM) :: -9.57%
3) CCC1=C[C@@H]2CN(C1)Cc1c([nH]c3ccccc13)[C@@](C(=O)OC)(c1cc3c(cc1OC)N(C)[C@H]1[C@@](O)(C(=O)OC)[C@H](OC(C)=O)[C@]4(CC)C=CCN5CC[C@]31[C@@H]54)C2 [Vinorelbine] (max concentration tested 10000 nM) :: 57.8%
4) Nc1cccc2c1CN(C1CCC(=O)NC1=O)C2=O (stereo unspecified) [Lenalidomide] (max concentration tested 100000 nM) :: -5.45%
5) C[C@]12C=CC(=O)C=C1CC[C@@H]1[C@@H]2C(=O)C[C@@]2(C)[C@H]1CC[C@]2(O)C(=O)CO [Prednisone] (max concentration tested 10000 nM) :: -2.14%

stdin: Given the compound Cc1nc(C(=O)NCC(=O)O)c(O)c2ccc(Oc3ccccc3)cc12 [FG-4592] (max concentration tested 10000 nM) , write its reported percent inhibition of viability.
stdout: -1.43%

stdin: Given the compound Nc1cccc2c1C(=O)N(C1CCC(=O)NC1=O)C2=O (stereo unspecified) [Pomalidomide] (max concentration tested 10000 nM) , write its reported percent inhibition of viability.
stdout: -1.13%

stdin: Given the compound COc1ccc(-c2nc(N3CCOCC3)c3sc(CN(C)c4ncc(C(=O)NO)cn4)cc3n2)cn1 [CUDC-907] (max concentration tested 10000 nM) , write its reported percent inhibition of viability.
stdout: 94.5%

stdin: Given the compound CON(C)C(=O)N1N=C(c2cc(F)ccc2F)S[C@@]1(CCCN)c1ccccc1 [ARRY-520] (max concentration tested 1000 nM) , write its reported percent inhibition of viability.
stdout: 98.8%

stdin: Given the compound Nc1cc(F)ccc1NC(=O)/C=C/c1cnn(C/C=C/c2ccccc2)c1 [RGFP966] (max concentration tested 10000 nM) , write its reported percent inhibition of viability.
stdout: 0.69%

stdin: Given the compound CNC(=O)c1cc(Oc2ccc(NC(=O)Nc3ccc(Cl)c(C(F)(F)F)c3)cc2)ccn1 [Sorafenib] (max concentration tested 1000 nM) , write its reported percent inhibition of viability.
stdout: -1.1%
